Listed here: items and their measured growth.
# Test system: HCT-15 colon
# Assay Explanation: NCI-60 one-dose screen, 48 h (100 = growth as untreated, 0 = no growth, -100 = all killed)
# Reported Conditions: 10 µM
This is part of a sample that, as a whole, favours compounds with a hit. Of some 83,000 tested, about 20% had one in any assay.
The figure you give is taken to be in %; do not add the unit.

Previously resolved entries follow.
{"columns": ["Compound", "growth (%)"],
 "data": [
  ["CC1(C)CC2(CC(C)(C)c3cc(O)c(O)cc32)c2cc(O)c(O)cc21", 89.5],
  ["CC(C)(C)NCC(O)c1ccccc1Cl (centres undefined)", 58.9],
  ["O=C(NCc1ccc([N+](=O)[O-])cc1)Nc1ccc(S(=O)(=O)F)cc1", 87.1]
]}

We next turn to a different compound, shown below.
INPUT: Param readout = growth; param system = HCT-15 colon; param query = N#CC(C#N)=Cc1ccc2ccccc2c1 ; response: value
OUTPUT: 111

---

Listed here: items and their measured growth.
# Tested on: HL-60(TB) leukemia
# Assay Explanation: NCI-60 one-dose screen, 48 h (100 = growth as untreated, 0 = no growth, -100 = all killed)
# Reported Conditions: 10 µM unless noted
The panel holds about 83,000 compounds, 20% with a hit somewhere; the sample as a whole holds those more often.
The figure you give is taken to be in %; do not add the unit.

{"columns": ["Compound", "Target Desc", "Unit Info", "Endpoint Value"],
 "data": [
  ["CN1CCN(CC(=O)N2c3cccc4cccc(c34)N(C(=O)CN3CCN(C)CC3)C2c2cn(-c3ccccc3)nc2-c2cccc([N+](=O)[O-])c2)CC1", "HL-60(TB) leukemia", "%", -60],
  ["O=C1OCC2=C1C(c1cccc(C(F)(F)F)c1)c1cc3c(cc1N2CCO)CCC3 (stereo not drawn)", "HL-60(TB) leukemia", "%", -25.2]
]}

INPUT: Param readout = growth; param system = HL-60(TB) leukemia; param query = COc1ccc(-c2nn(-c3ccccc3)cc2/C=C/C(=O)OCc2cn(-c3ccc(F)c(Cl)c3)nn2)cc1 ; response: value
OUTPUT: 83.3

---

# System: HL-60(TB) leukemia
# Assay Explanation: NCI-60 one-dose screen, 48 h
# Reported Conditions: 10 µM unless noted
About 83,000 compounds went through this panel and 20% of them were active in at least one assay; those are over-represented in the sample as a whole. Activity calls are given as the source filed them. The calls were made as follows: active = growth percent below 10; inactive = the rest.
Permitted responses: yes (1) = active, no (0) = inactive

{"columns": ["Compound", "Target Desc", "Qualitative Label"],
 "data": [
  ["COc1cc(/C=N\\NC(=O)CN2CCN(c3cc4c(cc3F)c(=O)c(C(=O)N/N=C/c3ccc(O)c(OC)c3)cn4C3CC3)CC2)ccc1O", "HL-60(TB) leukemia", "no (0)"],
  ["COc1cc2c(cc1[N+](=O)[O-])-c1ccc([N+](=O)[O-])cc1/C2=N/NC(N)=S", "HL-60(TB) leukemia", "no (0)"],
  ["CC(C)[C@@H]1C=C2CC[C@H]3[C@](C)(CN)CCC[C@]3(C)[C@H]2CC1", "HL-60(TB) leukemia", "no (0)"],
  ["C=C1C(=O)O[C@H]2[C@H]1CC/C(COC(=O)/C=C/C(=O)OC/C1=C/CC[C@@]3(C)O[C@H]3[C@H]3OC(=O)C(=C)[C@@H]3CC1)=C\\CC[C@@]1(C)O[C@@H]21", "HL-60(TB) leukemia", "yes (1)"],
  ["C=C1C(=O)O[C@H]2[C@H]1CC/C(Cn1cc(CNCCc3c[nH]c4ccc(Cl)cc34)nn1)=C\\CC[C@@]1(C)O[C@@H]21", "HL-60(TB) leukemia", "yes (1)"],
  ["O=[N+]([O-])c1ccc(O)c(-c2nc3ccccc3s2)c1", "HL-60(TB) leukemia", "no (0)"],
  ["COc1cc(-c2nn(-c3cccc(NC(=O)c4ccc(Cl)c(C(F)(F)F)c4)c3)cc2-c2ccncc2)ccc1Cl", "HL-60(TB) leukemia", "yes (1)"],
  ["Cc1ccc(C2NC(=S)N3C(c4ccc(C)cc4)NC(=S)N23)cc1 (centres undefined)", "HL-60(TB) leukemia", "yes (1)"]
]}

Consider the additional compound presented here.
INPUT: Any idea what this test logged for C#Cc1cccc(Nc2ncnc3cc4c(cc23)OCCOCCOCCO4)c1 ?
OUTPUT: no (0)

---

# Tested on: TK-10 renal
# Assay Explanation: NCI-60 one-dose screen, 48 h (100 = growth as untreated, 0 = no growth, -100 = all killed)
# Reported Conditions: 10 µM unless noted
About 83,000 compounds went through this panel and 20% of them were active in at least one assay; those are over-represented in the sample as a whole.
Readout: growth (%)
The figure you give is taken to be in %; do not add the unit.

{"columns": ["Compound", "growth [%]"],
 "data": [
  ["N#CC1=C(N)Oc2cc3c(cc2C1c1cccs1)OCO3 (stereo not drawn)", 56.1],
  ["COc1ccc(-c2ccc(OC)c(OC)c2OC)cc1", 16.2],
  ["C[C@]12CC[C@H](OC3OC(O)C(O)C(O)C3O)C=C1CCC1C2CC[C@]2(C)[C@@H](c3ccc(=O)oc3)CC[C@]12O (stereo partly drawn)", -80.6],
  ["N#[N+]c1cnc([O-])[nH]c1=O", 92.6],
  ["CC12CCC(=O)C=C1CCC1C2CCC2(C)C(C(=O)COC(=O)Cc3ccc(N(CCCl)CCCl)cc3)CCC12 (stereo not drawn)", 112]
]}

INPUT: State the recorded growth for this entry: CNC(=O)Oc1ccccc1-c1ccccc1
OUTPUT: 90.5

INPUT: State the recorded growth for this entry: CC(=O)Oc1ccc(Cl)cc1
OUTPUT: 97

INPUT: State the recorded growth for this entry: ClCCN(CCCl)c1ccc(C=NCCc2c[nH]c3ccccc23)cc1
OUTPUT: 88

INPUT: State the recorded growth for this entry: O=C(Nc1ccc(S(=O)(=O)F)cc1)Oc1ccccc1
OUTPUT: 96.5

INPUT: State the recorded growth for this entry: C1CN1c1nc(N2CC2)nc(N2CC2)n1
OUTPUT: 78.3

INPUT: State the recorded growth for this entry: O=C(/C=C/c1ccccc1)N[C@@H](CO)Cc1cnc[nH]1
OUTPUT: 93.5

INPUT: State the recorded growth for this entry: CC(=O)[O][Hg][c]1nc2c(c(=O)n(C)c(=O)n2C)n1C
OUTPUT: 110

---

# Tested on: COLO 205 colon
# Assay Explanation: NCI-60 one-dose screen, 48 h (100 = growth as untreated, 0 = no growth, -100 = all killed)
# Reported Conditions: 10 µM
Compounds without any hit were thinned out: in the full panel of roughly 83,000, 20% have a hit.
Listed here: items and their measured growth.
The figure you give is taken to be in %; do not add the unit.

Previously resolved entries follow.
{"columns": ["Molecule", "Endpoint Value"],
 "data": [
  ["O=C(NCCNC(=O)c1ccc([As](O)O)cc1)c1ccc([As](O)O)cc1", 100],
  ["Cc1cc(N(CCCl)CCCl)ccc1C=Nc1ccc2ccccc2c1", 87.4],
  ["O=C1NC(=S)NC(=O)C1=Cc1ccccc1", 103],
  ["COc1ccc(CN2CCN(Cc3ccccc3)CC2)c(O)c1", 95.5],
  ["CC(C)C1c2ccc(O)cc2Oc2nc(N)c(C#N)c(N)c21 (stereo unspecified)", 109]
]}

INPUT: State the recorded growth for this entry: CN(C)P1(N(C)C)=NP(N(C)C)(N(C)C)=NP(N(C)C)(N(C)C)=N1
OUTPUT: 113

---

# System: MDA-MB-231 breast
# Assay Explanation: NCI-60 one-dose screen, 48 h (100 = growth as untreated, 0 = no growth, -100 = all killed)
# Reported Conditions: 10 µM unless noted
About 83,000 compounds went through this panel and 20% of them were active in at least one assay; those are over-represented in the sample as a whole.
Readout: growth (%)
The figure you give is taken to be in %; do not add the unit.

Previously resolved entries follow.
{"columns": ["Compound", "growth [%]"],
 "data": [
  ["COc1cc[c]([Hg][Cl])cc1", 46.2],
  ["O=C(O)C1[O][Sb][O]C1C(=O)O (configuration not stated)", 128]
]}

INPUT: State the recorded growth for this entry: COc1ccc(/C=C(/C(=O)N2CCCC2)c2cc(OC)c(OC)c(OC)c2)cc1N
OUTPUT: 62

INPUT: State the recorded growth for this entry: COC(=O)C(=[N+]=[N-])C(=O)OC
OUTPUT: 113

INPUT: State the recorded growth for this entry: O=[N+]([O-])c1ccc2cnn(CSP(=S)(c3ccccc3)c3ccccc3)c2c1
OUTPUT: 51.8

INPUT: State the recorded growth for this entry: COc1ccc(/C=C\c2cc(OC)c(OC)c(OC)c2)cc1N/C=C\C(=O)c1c[nH]c2ccccc12
OUTPUT: 18.4

INPUT: State the recorded growth for this entry: NS(=O)(=O)c1nc[nH]c1[N+](=O)[O-]
OUTPUT: 102

These measurements were taken from PubChem BioAssay (NCI).
